All figures here come from PubChem BioAssay (NCI).

System: SK-MEL-2 melanoma
METHOD SUMMARY: NCI tumour cell line growth inhibition, 48 h
Provide the recorded TGI for the entries that follow.
API: value field is a number in µM; no unit string.

Consider COc1ccc(N2C(=O)[C@@H]3[C@@H]4CC(C)CC[C@@H]4c4c([nH]c5ccccc45)[C@@H]3C2=O)cc1 (stereo not given in full) . Its measured TGI is 28.5

Entry under test: CC(=O)OC1CCC2(C)C(CCC3C2CCC2(C)C(c4ccc(=O)oc4)C(OC(C)=O)CC32O)C1 (stereo not given) . Its TGI was 0.0911

----------
Test system: SN12K1 renal
METHOD SUMMARY: NCI tumour cell line growth inhibition, 48 h
MEASURE NAME: TGI (µM)
Expressed in µM, but write only the number.

Form field, TGI with SN12K1 renal, item COc1cc([C@@H]2c3cc4c(cc3[C@@H](OC3OC5COC(C)OC5C(O)C3O)[C@H]3COC(=O)[C@H]23)OCO4)cc(OC)c1O (some centres undefined) : 66.6

Form: item O=C1N[C@@H]([C@H]2CC[C@H](Cl)CN2)C(=O)N[C@H]1[C@H]1CC[C@H](Cl)CN1 ; test system SN12K1 renal; TGI: 13.5

Entry C=C1C(C)C2C(Cc3ccccc3)NC(=O)C23C(OC(C)=O)C=CC(C)(O)C(=O)C(C)C/C=C/C3C1O (centres undefined) , tested on SN12K1 renal, has a reported TGI of 58.3

----------
Tested on: SN12C renal
METHOD SUMMARY: NCI tumour cell line growth inhibition, 48 h
Assign TGI to each entry below.

Please fill in: TGI reported for COc1ccc(N2C(=O)[C@@H]3[C@@H]4CC(C)CC[C@@H]4c4c([nH]c5ccccc45)[C@@H]3C2=O)cc1 (stereo partly specified) = 32.5 µM

For O=C1c2cccc3cc([N+](=O)[O-])cc(c23)C(=O)N1c1ccc(OCCN2CCCC2)cc1 the compound record lists TGI as > 100 µM

Briefly, TGI measured for CC(C)C(Sc1nc(N)nc2nc[nH]c12)C(=O)O (stereo unspecified) : > 100 µM

Reported TGI ( N#C/C(=C/c1ccc([N+](=O)[O-])o1)c1ccccc1 ) = > 100 µM

Data point: Clc1ccc(Cc2nc3cc4ccccc4cc3[nH]2)cc1Cl ; TGI = 52.2 µM

The recorded TGI for entry O=C1c2ccccc2-c2cn(Cc3ccccc3)c3cccc(c23)C1c1cccnc1 (stereo unspecified) equals > 50 µM

For record O=C1OCc2nc3c(c(-c4ccccc4C(F)(F)F)c21)C(=O)OC3 the listed TGI is > 100 µM

Lookup result for COc1cc2c(c3oc4c(O)cccc4c(=O)c13)CC(C(C)(O)CCl)O2 (stereo unspecified) ; measured TGI: 2.4 µM

Briefly, TGI measured for CC1=C(C(=S)Nc2ccc(Cl)c(C(=O)OC(C)C)c2)SCCO1 : 32.9 µM

Briefly, TGI measured for Cc1csc(NCc2ccc(Cl)cc2)n1 : > 100 µM

# compound CCN(CC)C(=O)N[C@@H](CC(C)C)C(=O)NC ; its TGI = > 100 µM

----------
Tested on: SNB-75 CNS
METHOD SUMMARY: NCI tumour cell line growth inhibition, 48 h; in the data active means GI50 below about 0.43 µM; inactive means the rest
Log the outcome using a class from label 1 for active, label 0 for inactive

Per the assay record, what outcome was assigned to C=C(C)[C@@H]1CC[C@]2(C(=O)O)CC[C@]3(C)[C@H](CC[C@@H]4[C@@]5(C)CCC(N)C(C)(C)[C@@H]5CC[C@]43C)[C@@H]12 (stereo partly drawn) ?
label 0

Call for entry N#Cc1cnn(C(=O)c2nn(-c3ccc(Cl)cc3)cc2O)c1N :
label 1

Status in this test for ClC/C=C/CSc1ncnc2nc[nH]c12 ?
label 0

Which outcome was assigned to COc1ccc(/C(=C(\c2ccccc2)[N+](=O)[O-])c2ccc(OCCN3CCCC3)cc2)cc1 in this test?
label 0

For OC[C@H]1C[C@](O)(c2ccccc2Cl)[C@@H](c2ccccc2Cl)O1 , which call appears in the assay record?
label 0

State the result this test recorded for COc1cc2c(cc1O)CCN[C@@]21CS[C@H]2c3c(OC(C)=O)c(C)c4c(c3C(COC1=O)N1C2C2NC(Cc3cc(C)c(OC)c(O)c32)[C@@H]1O)OCO4 (stereo partly drawn) .
label 0

Returns: the outcome recorded for COc1cccc(/C=C\C(=O)c2ccccc2)c1 in this assay.
label 0

Field: outcome | Entry: CN1CCN(Cc2ccc(NC(=O)c3cncc(C#Cc4c(N)ncc5ccccc45)c3)cc2C(F)(F)F)CC1
label 0

----------
Could you please report measured TGI for the items listed next?
Tested on: OVCAR-8 ovarian
METHOD SUMMARY: NCI tumour cell line growth inhibition, 48 h

The reported TGI of the molecule CN(C)NC(=O)NC12CC3CC(CC(C3)C1)C2 was > 100 µM

// TGI lookup, molecule = COC(=O)c1sc(-n2cnc3cc(OC)c(OC)cc32)cc1OCc1ccccc1C(F)(F)F , result: > 25 µM

The molecule listed as CCOC(=O)c1c(NS(=O)(=O)c2ccccc2)sc2c1CCCC2 has a reported TGI of > 100 µM

Consider N#Cc1c(N)oc2cc3c(C#N)c(N)oc3cc12 . Its measured TGI is > 100 µM

So, C#Cc1c(C)c(/C=C/C(C)=C\C(=O)OC)n(C)c1C ? Its TGI was > 100 µM

Per the records, this molecule ( COC(OC)c1cccc2c1C(=O)CCC1(CC2)OCCCCO1 ) has TGI equal to > 100 µM

----------
Please respond with reported TGI for every item in the list.
Tested on: MOLT-4 leukemia
METHOD SUMMARY: NCI tumour cell line growth inhibition, 48 h

// TGI lookup, molecule = Oc1ccccc1/C=N\NC(=S)Nc1ccc(F)cc1 , result: > 31.1 µM

# TGI (molecule: N#Cc1ccc2c(-c3ccnc(NC4CC4)n3)c(-c3ccc(F)cc3)nn2c1 ) is > 25 µM

Please fill in: TGI reported for O=C(c1ccccc1)c1nn(-c2cccc(Cl)c2)c2nc3nc(-c4ccccc4)cc(=O)n3nc12 = > 25 µM

Kindly note the recorded TGI for COc1cccc(NC(=O)/C(CS(=O)(=O)CCC(C(C)=O)C(C)=O)=N\NC(C)(C)C)c1 , which is > 100 µM

Documented TGI of NC1=Nc2ncccc2C(=O)NN1 : > 10 µM

TGI reading for c1c2c(cc3c1OCO3)-c1ncc3cc4c(cc3c1C2)OCO4 : 0.152 µM

Recorded TGI (molecule O=C(CC(C(=O)c1ccsc1)c1cccs1)c1cccs1 (stereo not drawn) ): > 100 µM

Record summary for COc1cc2c(cc1C)NC(=O)/C2=C/c1c(Cl)[nH]c2ccccc12 : reported TGI = 31.3 µM

The molecule identified as CCN(CC)C(=O)N[C@@H](CC(C)C)C(=O)NC registered its TGI at > 100 µM

Just so you know, measured TGI for O=C(OC1C#CCSCC#C/C=C\1)c1ccc2c(c1)C(=O)c1ccccc1C2=O (stereo not drawn) came out at > 100 µM

Recorded result, C=C1C(=O)C23C(O)CC4C(C)(C)CCC(O)C4(C)C2CC(OC(C)=O)C1[C@H]3O (stereo partly drawn) , TGI: 8.08 µM

Record CC(NC(CC12CC3CC(CC(C3)C1)C2)C(N)=O)c1ccccc1 (stereo not drawn) . Reported TGI: 39.6 µM

Entry O=[N+]([O-])c1ccc(N=P(c2ccccc2)(c2ccccc2)c2ccccc2)n2nnnc12 ; TGI = > 100 µM

----------
System: HOP-62 NSCLC
METHOD SUMMARY: NCI tumour cell line growth inhibition, 48 h
MEASURE NAME: TGI (µM)
Report the value in µM with no unit label.

Form: molecule = C(=C\c1ccc2ccccc2c1Nc1ccccc1)/c1ccccc1 ; TGI = 62.5

Lab note: CCCCCn1sc(=O)n(Cc2ccc(CNC(=O)C(C)c3ccc(CC(C)C)cc3)cc2)c1=O (stereo not given) gave TGI of 3.35

Just so you know, measured TGI for COc1cc(F)c(F)c(Nc2ccc(I)cc2F)c1NS(=O)(=O)C1(CC(O)CO)CC1 (stereo not given) came out at 32.4

Looking up O=C(O)CCCCCNCc1cc2cc3c(cc2c2cc(OCc4ccccc4)ccc12)OCO3 , I found its TGI recorded as 5.25

----------
For each entry below, report its TGI value.
System: TK-10 renal
METHOD SUMMARY: NCI tumour cell line growth inhibition, 48 h

TGI measured on CC(C)(c1ccc(C=O)o1)c1ccc(C(C)(C)c2ccc(C=O)o2)o1 = > 100 µM

Notebook: CN1N=C(c2ccncc2)OC1c1ccc(C(F)(F)F)cc1 (centres undefined) , TGI read as > 100 µM

Just so you know, measured TGI for COC(=O)CC(=O)OC1C[C@@H]2CCC3C(C)(C)CCC[C@]3(C)C23CC[C@@]1(C)C3 (some centres undefined) came out at 34.3 µM

Looking up Cc1csc(NCc2ccc(Cl)cc2)n1 , I found its TGI recorded as > 100 µM

The compound identified as Cc1ccc2nc(CN(CCN(Cc3nc4ccc(C)cc4[nH]3)Cc3nc4ccc(C)cc4[nH]3)Cc3nc4ccc(C)cc4[nH]3)[nH]c2c1 registered its TGI at 2.95 µM

In plain terms, COc1cc2c(cc1C)NC(=O)/C2=C/c1c(Cl)[nH]c2ccccc12 has a documented TGI of 22.1 µM

Entry COc1cc2c(c(O)c1OC)C(O)C1CCC(=O)N1C2c1ccc2c(c1)OCO2 (centres undefined) , TGI reported as > 100 µM

The measured TGI associated with O=C1c2ccccc2-c2cn(Cc3ccccc3)c3cccc(c23)C1c1cccnc1 (centres undefined) reads > 50 µM

// O=C1c2ccccc2C(=O)c2c1ccc1c3ccccc3n(-c3ccccc3)c21 : TGI value = 60.1 µM

Measured TGI of N#Cc1sc2nc3c(c(-c4ccccc4)c2c1N)CCCC3 : > 100 µM

For COc1cc(OC)c(/C=C/S(=O)(=O)Cc2ccc(OC)c(N)n2)c(OC)c1 the compound record lists TGI as > 100 µM

Quick note, TGI for C(/C=C(\Nc1ccccc1)c1ccc2ccccc2c1)=Nc1ccccc1 landed at 4.47 µM

Note to self: TGI recorded for COc1cc2c3c(c4ccc(O)cc4c2cc1OC)[C@@H](O)[C@@H]1CCCN1C3 was 0.00649 µM

Field TGI (entry COC(=O)c1sc(-n2cnc3cc(OC)c(OC)cc32)cc1OCc1ccccc1C(F)(F)F ) reads > 25 µM

Noted for CCOC(=O)C(=O)CC(=O)C(Br)C(Br)c1ccc(Cl)cc1 (centres undefined) : its TGI reads > 100 µM

O=C1CC2(CCN(Cc3ccccc3)CC2)C(=O)N1N1CCCCC1 yielded TGI of > 100 µM

For reference, reported TGI for OC[C@H]1C[C@](O)(c2ccccc2Cl)[C@@H](c2ccccc2Cl)O1 stands at 64.7 µM

Record CCN(CC)c1ccc(N=Nc2ccc(-c3nc4cccnc4s3)cc2)cc1 , field TGI: > 100 µM

Query COc1cc([C@H]2OC[C@@H]3C(c4cc(OC)c5c(c4)OCO5)OC[C@H]23)cc(OC)c1OC (some centres undefined) yields TGI of > 100 µM

Short answer for C=CCSC1=N/C(=C\c2ccc(C)cc2)C(=O)N1CC=C : TGI was > 100 µM

compound COC(OC)c1cccc2c1C(=O)CCC1(CC2)OCCCCO1 , TGI observed: > 100 µM

Reported TGI of COC(=O)c1sc2c(c1C(=O)OC)C(=Nc1ccc(OC)cc1)SC2=Nc1ccc(OC)cc1 : 3.01 µM

Kindly note the recorded TGI for COc1ccccc1NC(=O)c1sc2ncn(CCOc3ccccc3)c(=O)c2c1C , which is > 50 µM

O=C(/C=C/c1ccco1)Nc1ncc(Cc2cc(Cl)ccc2Cl)s1 yielded TGI of > 100 µM
